B1: BEX1 (parent)
chain: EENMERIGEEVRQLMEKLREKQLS

Variants of: B1
Experiment: protein stability index of a GFP-peptide fusion (GPS, HEK-293T) (PSI 1-6); higher = more stable;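 note: lentivirally expressed fusions sorted by FACS into six bins by GFP to DsRed ratio, PSI derived from sequencing read proportions per bin multiplied by bin number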
Details: c terminus: a fixed tail appended
readout_kind: protein stability index
# print the numeric value only

Previously resolved entries follow.
residue_codes	protein stability index
EENMERIGEEVRQWMEKLREKQLS	4.7
EENMERIGEEVRQYMEKLREKQLS	4.58
EENMERIGGEVRQLMEKLREKQLS	4.67
EENMEVIGEEVRQLMEKLREKQLS	4.81

Look up protein stability index: EENMERIGEEDRQLMEKLREKQLS 5.92

Look up protein stability index: EENMERIGEEFRQLMEKLREKQLS 4.25

Look up protein stability index: EENMERIGEEVRQLPEKLREKQLS 5.5

Look up protein stability index: EENMEYIGEEVRQLMEKLREKQLS 4.57

Look up protein stability index: EENMERIGEEVRQLMEKLREKQTS 5.19

Look up protein stability index: EENYERIGEEVRQLMEKLREKQLS 4.55

Look up protein stability index: EENMERIGEEVRQLIEKLREKQLS 4.87

Look up protein stability index: EENMERRGEEVRQLMEKLREKQLS 5.16

Look up protein stability index: EEQMERIGEEVRQLMEKLREKQLS 3.94

Look up protein stability index: EENMERIGEEVRQLMEKLREKDLS 4.73

Look up protein stability index: EENMERIGEEVRQLMEKLRENQLS 4.61

Look up protein stability index: EENMERIGEEVRQLMEKLYEKQLS 3.92

Look up protein stability index: EENDERIGEEVRQLMEKLREKQLS 4.81

Look up protein stability index: EENMERIGEEVRQLMEKLREKCLS 2.46

Look up protein stability index: EECMERIGEEVRQLMEKLREKQLS 3.89

Look up protein stability index: EENMERIGEEVRQLMEKLREKTLS 3.59

Look up protein stability index: EENMERIHEEVRQLMEKLREKQLS 4.09

Look up protein stability index: EEAMERIGEEVRQLMEKLREKQLS 3.99

Look up protein stability index: EANMERIGEEVRQLMEKLREKQLS 2.97

Look up protein stability index: EENMERKGEEVRQLMEKLREKQLS 4.23

Look up protein stability index: EENMERIGEYVRQLMEKLREKQLS 4.13
